Test: In vivo biodistribution in normal ICR mice
Conditions: i.v., 30 min
Experimental: Histograms of brain and intestine uptake were presented in Fig. 6 for comparison, while detailed data concerning the in vivo biodistribution in normal ICR mice were collected in Table S3 in Supplementary information. […] [^125I]7a and [^125I]12a were rapidly cleared from the normal brain, with only small amounts of radioactivity remaining at 60 min post-injection (0.55% ID/g for [^125I]7a and 0.37% ID/g for [^125I]12a). […]
readout: Biodistribution of radioactivity, kidney
Give the value; after it, write the unit.

Field Biodistribution of radioactivity, kidney (entry FCCOc1ccc(COc2ccc([125I])cc2)cc1 [[^125I]12a] ) reads 7.44 ± 0.90 % injected dose per gram

According to the records, this compound [18F]CCOc1ccc(COc2ccc(I)cc2)cc1 [[^18F]12a] displays Biodistribution of radioactivity, kidney of 6.19 ± 0.37 % injected dose per gram

// Biodistribution of radioactivity, kidney lookup, compound = FCCOc1ccc(OCc2ccc([125I])cc2)cc1 [[^125I]7a] , result: 6.71 ± 0.78 % injected dose per gram

The value of Biodistribution of radioactivity, kidney measured for the compound [18F]CCOc1ccc(OCc2ccc(I)cc2)cc1 [[^18F]7a] turned out to be 6.12 ± 0.79 % injected dose per gram
